From: patent US10538498B2

biological target: human recombinant HDAC6 (Homo sapiens, UniProt Q9UBN7); experiment: HDAC6 enzyme activity inhibition assay (HDAC Fluorimetric Drug Discovery Kit); conditions: same protocol as the HDAC1 enzyme activity test
Sequence (Q9UBN7 whole entry): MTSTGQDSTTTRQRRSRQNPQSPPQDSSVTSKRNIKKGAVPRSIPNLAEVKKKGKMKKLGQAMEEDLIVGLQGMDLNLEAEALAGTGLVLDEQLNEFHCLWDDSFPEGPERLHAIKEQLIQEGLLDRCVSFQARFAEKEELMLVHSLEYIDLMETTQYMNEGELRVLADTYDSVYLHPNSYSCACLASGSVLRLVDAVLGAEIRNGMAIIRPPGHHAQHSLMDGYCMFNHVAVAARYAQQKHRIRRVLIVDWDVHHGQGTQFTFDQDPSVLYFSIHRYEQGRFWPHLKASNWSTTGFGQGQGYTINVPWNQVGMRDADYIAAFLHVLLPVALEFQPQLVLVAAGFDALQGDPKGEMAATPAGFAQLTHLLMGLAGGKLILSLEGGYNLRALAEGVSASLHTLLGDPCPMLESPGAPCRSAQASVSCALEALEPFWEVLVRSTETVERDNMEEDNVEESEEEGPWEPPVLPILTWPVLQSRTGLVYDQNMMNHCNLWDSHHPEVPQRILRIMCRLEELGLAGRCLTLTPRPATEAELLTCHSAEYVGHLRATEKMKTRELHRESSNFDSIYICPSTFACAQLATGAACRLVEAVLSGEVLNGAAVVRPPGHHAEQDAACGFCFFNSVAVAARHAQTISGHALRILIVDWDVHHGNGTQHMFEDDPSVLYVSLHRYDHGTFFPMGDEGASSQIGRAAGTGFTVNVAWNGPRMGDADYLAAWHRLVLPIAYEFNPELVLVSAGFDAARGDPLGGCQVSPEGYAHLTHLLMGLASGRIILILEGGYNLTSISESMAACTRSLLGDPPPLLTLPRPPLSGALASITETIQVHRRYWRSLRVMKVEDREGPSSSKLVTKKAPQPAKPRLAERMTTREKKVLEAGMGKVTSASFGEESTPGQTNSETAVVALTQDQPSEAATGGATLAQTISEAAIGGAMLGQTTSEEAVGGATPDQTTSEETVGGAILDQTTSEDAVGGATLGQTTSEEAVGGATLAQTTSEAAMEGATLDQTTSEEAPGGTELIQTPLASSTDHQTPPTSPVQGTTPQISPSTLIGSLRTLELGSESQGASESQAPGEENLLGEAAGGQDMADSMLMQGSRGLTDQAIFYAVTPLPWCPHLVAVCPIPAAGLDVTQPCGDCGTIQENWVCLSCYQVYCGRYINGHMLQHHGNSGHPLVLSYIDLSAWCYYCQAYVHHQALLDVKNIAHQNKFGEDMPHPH
endpoint: pIC50
Field pIC50 (float): negative decimal logarithm of the concentration in molar.

Asked: Data request, read-out pIC50, for O=S(=O)(CCN1CCN(c2ccc(F)cc2)CC1)N(Cc1ccc(-c2nnc(C(F)F)o2)cc1)c1ccccc1
Given back: 6.56

Asked: Data request, read-out pIC50, for CS(=O)(=O)N(Cc1ccc(-c2nnc(C(F)F)o2)cc1)c1ccc(Br)cn1
Given back: 6.99

Asked: Data request, read-out pIC50, for CS(=O)(=O)N(Cc1ccc(-c2nnc(C(F)F)o2)cn1)c1cccc(F)c1
Given back: 7.89

Asked: Data request, read-out pIC50, for CCS(=O)(=O)N(Cc1ccc(-c2nnc(C(F)F)o2)cn1)c1ccc(C)c(Cl)c1
Given back: 7.89

* * *

target: human recombinant HDAC6 (Homo sapiens); assay: HDAC6 enzyme activity inhibition assay (HDAC Fluorimetric Drug Discovery Kit); conditions: same protocol as the HDAC1 enzyme activity test
# Lookup of reported pIC50 keyed by entry
Field pIC50 (float): negative decimal logarithm of the concentration in molar.

1. NC(=O)[C@H]1CCCN1CCS(=O)(=O)N(Cc1ccc(-c2nnc(C(F)F)o2)cn1)c1ccccc1
7.23
2. CCS(=O)(=O)N(Cc1ccc(-c2nnc(C(F)F)o2)cn1)c1cc(Cl)cc(Cl)c1
7.92
3. Cc1cccc(N(Cc2ccc(-c3nnc(C(F)F)o3)cn2)S(=O)(=O)C2CCN([C@H]3CC[C@@H](C(F)(F)F)CC3)CC2)c1
7.09
4. CS(=O)(=O)N(Cc1ccc(-c2nnc(C(F)F)o2)cc1F)c1cccc(C(F)(F)F)c1
7.55
5. O=S(=O)(CCCN1CCCC1)N(Cc1ccc(-c2nnc(C(F)F)o2)cn1)c1ccc(F)c(Cl)c1
7.68

Asked: Data request, read-out pIC50, for CCS(=O)(=O)N(Cc1ccc(-c2nnc(C(F)F)o2)cn1)c1cccc(Br)c1
Given back: 7.96

Asked: Data request, read-out pIC50, for CN1Cc2ccc(N(Cc3ccc(-c4nnc(C(F)F)o4)cc3)S(C)(=O)=O)cc2C1
Given back: 5.75

Asked: Data request, read-out pIC50, for CS(=O)(=O)N(Cc1ccc(-c2nnc(C(F)F)o2)cc1)Cc1ccc(-c2nnc(C(F)F)o2)cc1
Given back: 6.64

* * *

target: human recombinant HDAC6 (Homo sapiens, UniProt Q9UBN7); test: HDAC6 enzyme activity inhibition assay (HDAC Fluorimetric Drug Discovery Kit); conditions: same protocol as the HDAC1 enzyme activity test
# Lookup of reported log10(IC50) keyed by entry
Could you please treat all values as log10 of IC50 in nM?

Asked: Data request, read-out log10(IC50), for CS(=O)(=O)N(Cc1ccc(-c2nnc(C(F)(F)F)o2)nc1)c1ccccc1
Given back: 2.82

Asked: Data request, read-out log10(IC50), for CS(=O)(=O)N1CC(N2CCN(CCS(=O)(=O)N(Cc3ccc(-c4nnc(C(F)F)o4)cc3F)c3ccc(F)c(Cl)c3)CC2)C1
Given back: 1.36

Asked: Data request, read-out log10(IC50), for O=C(CN1CCN(CCS(=O)(=O)N(Cc2ccc(-c3nnc(C(F)F)o3)cc2)c2ccccc2)CC1)N1CCOCC1
Given back: 1.93

Asked: Data request, read-out log10(IC50), for CCS(=O)(=O)N(Cc1ccc(-c2nnc(C(F)F)o2)cn1)c1ccc(Cl)c(Cl)c1
Given back: 1.15

Asked: Data request, read-out log10(IC50), for Cc1nn(C)c2ccc(N(Cc3ccc(-c4nnc(C(F)F)o4)cc3)S(C)(=O)=O)cc12
Given back: 2.10
